tested on: MDA-MB-435; assay: NCI tumour cell line growth inhibition, 48 h
quantity: TGI (µM)
Numbers only, in µM.

The examples below pair each entry with its known result.
[[record]]
molecule = "Cc1ccc(S(=O)(=O)NC(CCC(=O)Nc2ccc(Cl)cc2)C(=O)Nc2ccc(Cl)cc2)cc1 (stereo unspecified)"
system_under_test = "MDA-MB-435"
quantity = "TGI"
numeric_readout = 9.74

[[record]]
molecule = "COc1cc2cc(Oc3ccc(NC(=O)Nc4cccc(C(F)(F)F)c4)cc3)c(C)nc2cc1OCCN1CCCCC1"
system_under_test = "MDA-MB-435"
quantity = "TGI"
numeric_readout = 2.94

[[record]]
molecule = "Nc1nc(Cl)c(C=O)c(NCC2(CO)CC(CCc3ccccc3)C2)n1 (stereo unspecified)"
system_under_test = "MDA-MB-435"
quantity = "TGI"
numeric_readout = 17.9


Go through the list and state TGI for each entry.
1. CCOC(=O)c1cnc(SCc2ccc(Cl)c(Cl)c2)nc1N1CC1
2. CCOC(=O)c1cccc(NC(=O)CBr)c1
3. COc1cc[nH]c1/C=C1\C(=O)Nc2ccc(F)c(C#C[C@@H](O)[C@@H](N)[C@@H](C)O)c21

Given back:
1: 11.4; 2: 2.51; 3: 2.83

Fill in TGI for each of the 5 molecules listed.
1. CC(=O)OCCC1c2ccccc2-n2nc(-c3ccccc3)c(O)c21 (stereo unspecified)
2. O/N=c1/ccn(O)c2ccccc12
3. COc1cc([C@@H]2c3cc4c(cc3[C@H](OC3OC5COC(C(C)C)OC5C(O)C3O)C3COC(=O)[C@@H]32)OCO4)cc(OC)c1O (stereo partly specified)
4. COC(=O)C1Cc2c([nH]c3ccccc23)C(c2cccc(O)c2)N1 (stereo unspecified)
5. C1=CN2C[n+]3cccc(OCc4ccccc4)c3N=C2C(OCc2ccccc2)=C1

Given back:
[32.3, 17.4, 19.2, 36.6, 33.2]

---

Could you please report measured TGI for the items listed next?
test system: OVCAR-5 ovarian; test: NCI tumour cell line growth inhibition, 48 h

Below, 2 compounds whose answers are already recorded.
[[record]]
compound = "COc1cc2c3c(n(C)c(=O)c2cc1OC)-c1cc2c(cc1/C3=C\\CCCCN)OCO2"
quantity = "TGI"
result = "35.4 µM"

[[record]]
compound = "COc1cc2cc(Oc3ccc(NC(=O)Nc4ccc(F)c(C(F)(F)F)c4)cc3)c(C)nc2cc1OCCN1CCCCC1"
quantity = "TGI"
result = "3.1 µM"


Hi team, please reply with TGI for each item in this list.
1. CC(=O)Nc1ccc(Nc2cc(=O)n(C)c(=O)[nH]2)cc1
2. S=C(NNC1=NCCCN1)Nc1ccccc1
3. CC(=O)c1ccc(Nc2cc(-n3ccnc3)nc3ccccc23)cc1

Given back:
> 100 µM
> 100 µM
> 100 µM

Please state, for each entry, its recorded TGI.
1. COc1cc(-c2cc(C(=O)N3CCN(C(=O)c4ccccc4NCc4ccco4)CC3)nc3cc(-c4ccccc4)nn23)cc(OC)c1OC
2. CCOP(=O)(OCC)C1C(=O)O[C@H]2CCCC[C@@H]12 (stereo not given in full)
3. O=c1c(Cl)nnc2sc3ccccc3n12

Given back:
> 100 µM
> 100 µM
> 100 µM

Hey, can you go through the list below and give me TGI for every item?
1. C1=CN2C[n+]3cccc(OCc4ccccc4)c3N=C2C(OCc2ccccc2)=C1
2. COc1ncnc2c1cnn2Cc1cn(COCC(O)CO)nn1 (stereo not given)

Given back:
1. > 100 µM
2. > 100 µM

FYI, the data here is from PubChem BioAssay (NCI).
